molecular target: T1, human wild-type EGFR protein on the cell surface (human, UniProt P00533 25-1210); experiment: FACS, MFI on A431 cells over MFI on normal primary hepatocytes
T1 construct: whole, on cells; Endogenous on A431, HEB, U87MG cells and normal human primary hepatocytes; transfected on CHOk1-EGFR cells; The cell is named under assay; also called A431; HEB
PROPERTY NAME: Selective window (MFI A431/Hepatocytes) (fold)
Write the number in fold without appending the unit.

Data request: Value lookup for Selective window (MFI A431/Hepatocytes); key = Humanized antibody h75G7C6-16 (antibody, human IgG1, V domains shown, also called VH-g2/VL-g3) VH: QVQLVQSGAEVKKPGASVKVSCKASGYTFTDYNMDWVKQAPGQGLEWIGDINPNNADTIYNQKFKGRVTLTVDKSTSTVYMELSSLRSEDTAVYYCARGDYDGYYPVYYAMDYWGQGTTVTVSS VL: ENVLTQSPATLSLSPGERATLSCRASSSVSSSYLHWYQQKPGQSPRLLIFSTSNLAAGVPARFSGSGSGTDYTLTISSLEPEDFAVYYCQQYSGYPLTFGGGTKVEIK
Data returned: 46.2

Data request: Value lookup for Selective window (MFI A431/Hepatocytes); key = Humanized antibody h75G7C6-13 (antibody, human IgG1, V domains shown, also called VH-g2/VL-g0) VH: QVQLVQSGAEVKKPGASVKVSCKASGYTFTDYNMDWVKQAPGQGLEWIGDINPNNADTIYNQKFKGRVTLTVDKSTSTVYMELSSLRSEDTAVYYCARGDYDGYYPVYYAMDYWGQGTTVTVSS VL: EIVLTQSPATLSLSPGERATLSCRASSSVSSSYLHWYQQKPGQAPRLLIYSTSNLAAGIPARFSGSGSGTDFTLTISSLEPEDFAVYYCQQYSGYPLTFGGGTKVEIK
Data returned: 44.7

Data request: Value lookup for Selective window (MFI A431/Hepatocytes); key = Humanized antibody h75G7C6-14 (antibody, human IgG1, V domains shown, also called VH-g2/VL-g1) VH: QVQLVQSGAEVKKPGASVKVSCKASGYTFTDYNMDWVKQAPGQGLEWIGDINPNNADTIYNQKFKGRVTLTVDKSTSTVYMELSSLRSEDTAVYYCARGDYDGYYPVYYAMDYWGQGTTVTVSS VL: ENVLTQSPATLSLSPGERATLSCRASSSVSSSYLHWYQQKPGQAPRLLIFSTSNLAAGIPARFSGSGSGTDYTLTISSLEPEDFAVYYCQQYSGYPLTFGGGTKVEIK
Data returned: 46.2

Data request: Value lookup for Selective window (MFI A431/Hepatocytes); key = Humanized antibody h75G7C6-15 (antibody, human IgG1, V domains shown, also called VH-g2/VL-g2) VH: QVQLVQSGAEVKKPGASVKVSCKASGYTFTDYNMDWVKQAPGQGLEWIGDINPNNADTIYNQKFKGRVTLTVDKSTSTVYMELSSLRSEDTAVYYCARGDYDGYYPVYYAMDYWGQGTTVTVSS VL: ENVLTQSPATLSLSPGERATLSCRASSSVSSSYLHWYQQKPGQSPRLLIFSTSNLAAGIPARFSGSGSGTDYTLTISSLEPEDFAVYYCQQYSGYPLTFGGGTKVEIK
Data returned: 45.3
